biological target: human TLR8 (Homo sapiens (Human), UniProt Q9NR97); experiment: TLR8 inhibition reporter assay (HEK-Blue, SEAP); conditions: HEK-Blue cells overexpressing human TLR8, R848 15.9 μM stimulation
Sequence (Q9NR97 27-1041): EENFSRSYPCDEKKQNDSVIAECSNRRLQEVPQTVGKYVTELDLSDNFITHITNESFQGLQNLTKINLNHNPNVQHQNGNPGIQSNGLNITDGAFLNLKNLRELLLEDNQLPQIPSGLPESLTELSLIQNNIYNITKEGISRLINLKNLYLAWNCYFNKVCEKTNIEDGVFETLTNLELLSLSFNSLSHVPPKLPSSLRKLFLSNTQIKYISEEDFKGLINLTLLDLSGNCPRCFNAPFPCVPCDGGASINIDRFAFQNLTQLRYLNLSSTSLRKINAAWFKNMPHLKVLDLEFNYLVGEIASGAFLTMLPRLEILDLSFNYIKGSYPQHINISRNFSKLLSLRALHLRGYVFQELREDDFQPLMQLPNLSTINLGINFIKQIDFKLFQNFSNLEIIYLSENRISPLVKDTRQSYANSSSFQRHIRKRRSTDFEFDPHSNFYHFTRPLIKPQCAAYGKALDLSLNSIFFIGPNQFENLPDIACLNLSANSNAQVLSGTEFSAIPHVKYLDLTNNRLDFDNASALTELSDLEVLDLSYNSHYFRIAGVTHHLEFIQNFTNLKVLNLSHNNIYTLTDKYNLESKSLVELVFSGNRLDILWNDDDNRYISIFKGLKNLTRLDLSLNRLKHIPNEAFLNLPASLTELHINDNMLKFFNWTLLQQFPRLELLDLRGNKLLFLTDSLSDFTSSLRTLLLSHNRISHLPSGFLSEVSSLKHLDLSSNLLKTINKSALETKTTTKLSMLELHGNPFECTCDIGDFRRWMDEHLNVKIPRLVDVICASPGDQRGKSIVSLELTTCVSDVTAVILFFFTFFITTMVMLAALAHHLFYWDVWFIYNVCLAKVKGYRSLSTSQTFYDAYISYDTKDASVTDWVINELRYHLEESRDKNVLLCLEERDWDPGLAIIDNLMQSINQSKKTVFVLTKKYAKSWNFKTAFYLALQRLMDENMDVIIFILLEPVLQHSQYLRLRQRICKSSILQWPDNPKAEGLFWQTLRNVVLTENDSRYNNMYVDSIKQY
pIC50: −log10 of the molar value.
parameter: pIC50

Example entries and their recorded answers appear below.
compound: COc1ccc(-c2[nH]c3ccc(-c4ccc(N5CCN(C)CC5)nc4)cc3c2C(C)C)cc1OC
parameter: pIC50
measurement: 8.12

compound: CC(C)c1c(-c2ccnc3[nH]ncc23)[nH]c2ccc(-c3nnc(C(=O)NC4CCN(C(C)C)CC4)o3)cc12
parameter: pIC50
measurement: 8.22

compound: CNc1ccc(-c2ccc3[nH]c(-c4ccnc(C)c4)c(C(C)C)c3c2)cn1
parameter: pIC50
measurement: 8.01

a: CC(C)c1c(-c2ccnc3[nH]ncc23)[nH]c2ccc(-c3nnc([C@H]4CCCNC4)o3)cc12
b: CC(C)c1c(-c2ccnc3[nH]ncc23)[nH]c2ccc(-c3nnc(CN4CC[C@@H](N(C)C)C4)o3)cc12
c: COc1ccc(-c2[nH]c3ccc(-c4nnc(CNCCOCCO)o4)cc3c2C(C)C)cc1OC
d: COc1ccc(-c2[nH]c3ccc(-c4ccnc(C(=O)NC5CCC(N)CC5)c4)cc3c2C(C)C)cc1OC (stereo not shown)
-- ask Your job: order these 4 records by pIC50, ascending. // format: requested-order list of labels
-- reply c, d, b, a

a: CNCCN1CCC(c2nnc(-c3ccc4[nH]c(-c5ccc(OC)c(OC)c5)c(C(C)C)c4c3)o2)CC1
b: Cc1cc(-c2[nH]c3ccc(-c4ccc(N(C)C)nc4)cc3c2C(C)C)ccn1
-- ask Looking only at measured pIC50, which entry is lower, a or b ? Let me know the label of the one you choose.
-- reply b
(b: 7.68, a: 8.43)

1: Cc1cc(-c2[nH]c3ccc(-c4nnc([C@@H]5CCNC5)o4)cc3c2C(C)C)ccn1
2: Cc1cc(-c2[nH]c3ccc(-c4nc(C(=O)NCCCN5CCCCC5)co4)cc3c2C(C)C)cc(C)n1
-- ask Rank 1 against 2 by their pIC50 values and give the higher one. Let me know the label of the one you choose.
-- reply 1

A: Cc1cc(-c2[nH]c3ccc(-c4ccc(N5CCN(C(C)C)CC5)nc4)cc3c2C(C)C)ccn1
B: Cc1cc(-c2[nH]c3ccc(-c4ccnc(N5CCN(C(C)C)CC5)c4)cc3c2C(C)C)ccn1
-- ask Rank A against B by their pIC50 values and give the higher one. Let me know the label of the one you choose.
-- reply B
(B: 7.96, A: 7.55)

A: CNCCN1CCn2nc(-c3ccc4[nH]c(-c5ccnc6[nH]ncc56)c(C(C)C)c4c3)nc2C1
B: Cc1cc(-c2[nH]c3ccc(-c4ccc(NC(C)C)nc4)cc3c2C(C)C)cc(C)n1
-- ask Rank A against B by their pIC50 values and give the higher one. Let me know the label of the one you choose.
-- reply B
(B: 8.59, A: 7.39)

I: CC(C)c1c(-c2ccnc3[nH]ncc23)[nH]c2ccc(-c3cccnc3)cc12
II: CCc1c(-c2ccc(OC)c(OC)c2)[nH]c2ccc(-c3noc(CCOC)n3)cc12
III: C#CCN(C)Cc1nnc(-c2ccc3[nH]c(-c4ccc(OC)c(OC)c4)c(C(C)C)c3c2)o1
-- ask Your job: order these 3 records by pIC50, ascending. // format: requested-order list of labels
-- reply II, III, I
(II: 5.89, III: 6.67, I: 7.74)

I: COc1ccc(-c2[nH]c3ccc(-c4cccc(C(=O)N5CCCN(C)CC5)c4)cc3c2C(C)C)cc1OC
II: COc1ccc(-c2[nH]c3ccc(-c4cccc(C(=O)NCCN5CCOCC5)c4)cc3c2CC(F)(F)F)cc1OC
III: Cc1cc(-c2[nH]c3ccc(-c4ccc(N5CCNCC5)nc4)cc3c2C(C)C)cc(C)n1
IV: Cc1cc(-c2[nH]c3ccc(-c4nnc([C@@H](N)C5CC5)o4)cc3c2C(C)C)ccn1
V: Cc1cc(-c2[nH]c3ccc(-c4nc(C(=O)NCC(C)CN)co4)cc3c2C(C)C)cc(C)n1 (stereo not shown)
-- ask Your job: order these 5 records by pIC50, ascending. // format: requested-order list of labels
-- reply II, V, I, IV, III
(II: 7.26, V: 7.89, I: 8.17, IV: 8.55, III: 8.77)

P: Cc1cc(-c2[nH]c3ccc(-c4nnc(CN5CCNCC5)o4)cc3c2C(C)C)ccn1
Q: CC(C)c1c(-c2ccnc3[nH]ncc23)[nH]c2ccc(-c3ccc(C(C)N4CCOCC4)cc3)cc12 (stereo not shown)
R: COc1ccc(-c2[nH]c3ccc(-c4cnc(N5CCN(C6CCCC6)CC5)nc4)cc3c2C(C)C)cc1OC
-- ask // ranking: key=pIC50, reverse=True // format: requested-order list of labels
-- reply P, Q, R
(P: 8.28, Q: 7.89, R: 6.62)

Every entry's value here was drawn from patent US11420958B2.
